System: BCL2 G101V
Assay: TR-FRET competitive binding assay, BCL2 G101V
Set-up: species or system human
Details: ratio Ki BCL2 G101V / Ki BCL2 WT
Reported property: TR_FRET EKI G101V/WT selectivty ratio
Keep the answer to the number alone.

Reported TR_FRET EKI G101V/WT selectivty ratio of Cc1c(N(C(=O)c2cc(-c3cc4c(cc3C(=O)N3Cc5ccccc5C[C@H]3CN3CCCCC3)CN(C(=O)Cc3ccc(OCC(C)N5CCOCC5)cc3F)CC4)n(C)c2C)c2ccc(O)cc2)cc(C#N)n1C (single isomer, unassigned) [Example 141] : 4.7

Reported TR_FRET EKI G101V/WT selectivty ratio of Cc1c(N(C(=O)c2cc(-c3cc4c(cc3C(=O)N3Cc5ccccc5C[C@H]3C)CN(C(=O)Cc3ccc(C5CCN(CCF)CC5)c(F)c3)CC4)n(C)c2C)c2ccc(O)cc2)cc(C#N)n1C : 4.8

Reported TR_FRET EKI G101V/WT selectivty ratio of Cc1c(C(=O)N(c2ccc(O)cc2)c2cnn(C)c2)cc(-c2cc3c(cc2C(=O)N2Cc4ccccc4C[C@H]2C)CN(C(=O)Cc2ccc(OCCC4CCOCC4)cc2)CC3)n1C : 3.3

Reported TR_FRET EKI G101V/WT selectivty ratio of Cc1cc(OCCN2CCOCC2)c(F)cc1CC(=O)N1CCc2cc(-c3cc(C(=O)N(c4ccc(O)cc4)c4cc(C#N)n(C)c4C)c(C)n3C)c(C(=O)N3Cc4ccccc4C[C@H]3CN3CCCCC3)cc2C1 : 9.3
